# Tested on: K12877-001-R-J1-PDC complex spheroid viability;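 also: tumour cells co-cultured with HUVEC and mesenchymal stem cells in spheroids; spheroids exposed to agents for one week before readout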
# EXPERIMENT_SUMMARY: Anticancer human tumor K12877-001-R-J1-PDC patient-derived lung adenocarcinoma cell line growth inhibition [RAS]; active = viability on the fitted dose curve at most 10% of control; inactive = the rest
# SETUP_CONDITIONS: second compound 10 µM; first compound 0.1 µM
Possible outcomes: active, inactive

[
  {
    "COMPOUND": "CC(C)n1nc(-c2ccc3oc(N)nc3c2)c2c(N)ncnc21 + C#Cc1c(F)ccc2cc(O)cc(-c3ncc4c(N5CC6CCC(C5)N6)nc(OCC56CCCN5CC(F)C6)nc4c3F)c12",
    "ASSAY_TARGET": "K12877-001-R-J1-PDC complex spheroid viability",
    "CLASS_NAME": "inactive"
  },
  {
    "COMPOUND": "CC(Nc1ccc2c(c1)OCCn1cc(N3C(=O)OCC3C(F)F)nc1-2)C(N)=O (stereo not given) + C#Cc1c(F)ccc2cc(O)cc(-c3ncc4c(N5CC6CCC(C5)N6)nc(OCC56CCCN5CC(F)C6)nc4c3F)c12",
    "ASSAY_TARGET": "K12877-001-R-J1-PDC complex spheroid viability",
    "CLASS_NAME": "inactive"
  },
  {
    "COMPOUND": "CCN1CCN(Cc2ccc(Nc3ncc(F)c(-c4cc(F)c5nc(C)n(C(C)C)c5c4)n3)nc2)CC1 + C#Cc1c(F)ccc2cc(O)cc(-c3ncc4c(N5CC6CCC(C5)N6)nc(OCC56CCCN5CC(F)C6)nc4c3F)c12",
    "ASSAY_TARGET": "K12877-001-R-J1-PDC complex spheroid viability",
    "CLASS_NAME": "inactive"
  },
  {
    "COMPOUND": "CCC(CC)c1cc(NC2CCC(N)C2)n2nccc2n1 (stereo not given) + C#Cc1c(F)ccc2cc(O)cc(-c3ncc4c(N5CC6CCC(C5)N6)nc(OCC56CCCN5CC(F)C6)nc4c3F)c12",
    "ASSAY_TARGET": "K12877-001-R-J1-PDC complex spheroid viability",
    "CLASS_NAME": "inactive"
  },
  {
    "COMPOUND": "C[C@@H](NC(=O)c1ncnc(N)c1Cl)c1ncc(C(=O)Nc2cc(C(F)(F)F)c(Cl)cn2)s1 + C#Cc1c(F)ccc2cc(O)cc(-c3ncc4c(N5CC6CCC(C5)N6)nc(OCC56CCCN5CC(F)C6)nc4c3F)c12",
    "ASSAY_TARGET": "K12877-001-R-J1-PDC complex spheroid viability",
    "CLASS_NAME": "inactive"
  },
  {
    "COMPOUND": "Cc1nc(N2CCC3(CC2)COC(C)C3N)c(CO)nc1Sc1ccnc(N)c1Cl (stereo not given) + C#Cc1c(F)ccc2cc(O)cc(-c3ncc4c(N5CC6CCC(C5)N6)nc(OCC56CCCN5CC(F)C6)nc4c3F)c12",
    "ASSAY_TARGET": "K12877-001-R-J1-PDC complex spheroid viability",
    "CLASS_NAME": "inactive"
  },
  {
    "COMPOUND": "CC1(O)CCCC1n1c(=O)c(C(F)F)cc2cnc(NC3CCN(S(C)(=O)=O)CC3)nc21 (stereo not given) + C#Cc1c(F)ccc2cc(O)cc(-c3ncc4c(N5CC6CCC(C5)N6)nc(OCC56CCCN5CC(F)C6)nc4c3F)c12",
    "ASSAY_TARGET": "K12877-001-R-J1-PDC complex spheroid viability",
    "CLASS_NAME": "inactive"
  },
  {
    "COMPOUND": "Nc1ccn(C2OC(CO)C(O)C2(F)F)c(=O)n1 (stereo not given) + C#Cc1c(F)ccc2cc(O)cc(-c3ncc4c(N5CC6CCC(C5)N6)nc(OCC56CCCN5CC(F)C6)nc4c3F)c12",
    "ASSAY_TARGET": "K12877-001-R-J1-PDC complex spheroid viability",
    "CLASS_NAME": "active"
  },
  {
    "COMPOUND": "CC(C)NCC(C(=O)N1CCN(c2ncnc3c2C(C)CC3O)CC1)c1ccc(Cl)cc1 (stereo not given) + C#Cc1c(F)ccc2cc(O)cc(-c3ncc4c(N5CC6CCC(C5)N6)nc(OCC56CCCN5CC(F)C6)nc4c3F)c12",
    "ASSAY_TARGET": "K12877-001-R-J1-PDC complex spheroid viability",
    "CLASS_NAME": "inactive"
  },
  {
    "COMPOUND": "C=CC(=O)N1CCN(c2nc(OCC3CCCN3C)nc3c(F)c(-c4nc(N)cc(C)c4C(F)(F)F)c(Cl)cc23)C(C)C1 (stereo not given) + C#Cc1c(F)ccc2cc(O)cc(-c3ncc4c(N5CC6CCC(C5)N6)nc(OCC56CCCN5CC(F)C6)nc4c3F)c12",
    "ASSAY_TARGET": "K12877-001-R-J1-PDC complex spheroid viability",
    "CLASS_NAME": "inactive"
  }
]
